All figures here come from patent US20250171744A1.

Assay: Cell viability after MTX or PTX treatment (FIG. 17)
Type: cell-based
Conditions: human, HDF fibroblast cell line; post MTX or PTX treatment
Exercise: for every item that follows, state its recorded viability.

# compound, readout.name, experimental.value
rows = [
    ("Nc1nc2[nH]cc(CCc3ccc(C(=O)N[C@@H](CCC(=O)O)C(=O)O)cc3)c2c(=O)[nH]1 [PTX, pemetrexed]", "viability", "60 to 75%"),
]

Pending compound:
# lookup: viability of CN(Cc1cnc2nc(N)nc(N)c2n1)c1ccc(C(=O)N[C@@H](CCC(=O)O)C(=O)O)cc1 [MTX, methotrexate]
60 to 75%

----------
Test: Cell viability after MTX or PTX treatment (FIG. 17)
Type: cell-based
Details: human, HF57 fibroblast cell line; post MTX or PTX treatment
readout.name: viability

# compound, viability
measured = [
    ("Nc1nc2[nH]cc(CCc3ccc(C(=O)N[C@@H](CCC(=O)O)C(=O)O)cc3)c2c(=O)[nH]1 [PTX, pemetrexed]", "60 to 75%"),
]

Pending compound:
# lookup: viability of CN(Cc1cnc2nc(N)nc(N)c2n1)c1ccc(C(=O)N[C@@H](CCC(=O)O)C(=O)O)cc1 [MTX, methotrexate]
60 to 75%
